# measurement target: Matrix metalloproteinase-14 (Homo sapiens, UniProt P50281)
# test name: Inhibition of MMP-14 (unknown origin)
property label: pIC50
// field semantics: pIC50 = negative decimal log of concentration (mol/L)

Reported pIC50, molecule "CNC(=O)[C@@H](NC(=O)[C@H](CC(C)C)[C@H](O)C(=O)NO)C(C)(C)C" : ____
8.74

Could you do the same for "CN(C)c1ccc(-c2cn(-c3ccc(S(=O)(=O)C4(C(=O)NO)CCOCC4)cc3)nn2)cc1" , please?
6.54

Could you do the same for O=C(NO)C(Cc1ccccc1)NS(=O)(=O)c1ccc(-c2cn(-c3ccc(-c4ccccc4)cc3)nn2)cc1 (configuration not stated) , please?
6.26

Could you do the same for "COc1ccc(-c2cn(-c3ccc(S(=O)(=O)C4(C(=O)NO)CCOCC4)cc3)nn2)cc1" , please?
8.09

Could you do the same for "O=C(CS(=O)(=O)c1ccc(-c2ccccc2)cc1)NO" , please?
6.42

Could you do the same for "O=C(O)CS(=O)(=O)c1ccc(-c2ccccc2)cc1" , please?
6.78

Could you do the same for "CC(C)ON([C@@H](CCNC(=O)OCc1ccccc1)C(=O)NO)S(=O)(=O)c1ccc(-c2ccccc2)cc1" , please?
8.11

Reference for the values: ChEMBL document CHEMBL5113513
